Overview of recorded Top(MFI) for various binders
assay.system: T1, full-length human OX40 expressed on HuT78 cells (HuT78/OX40) (human, UniProt P43489 29-277)
T1 sequence: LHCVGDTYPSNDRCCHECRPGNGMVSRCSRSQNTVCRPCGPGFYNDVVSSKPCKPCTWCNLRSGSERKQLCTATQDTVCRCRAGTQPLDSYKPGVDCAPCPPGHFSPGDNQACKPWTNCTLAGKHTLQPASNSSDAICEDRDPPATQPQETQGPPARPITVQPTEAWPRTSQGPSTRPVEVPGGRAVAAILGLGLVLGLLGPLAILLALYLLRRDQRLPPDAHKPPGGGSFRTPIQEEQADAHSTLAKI
test.details: FACS; cells not named on the sheet, HuT78/OX40 cells as in Example 5

| binder | Top(MFI) |
| --- | --- |
| 445-2 (antibody, V domains shown) VH: QVQLVQSGAEVKKPGSSVKVSCKASGYKFTSYIIHWVRQAPGQGLEWMGYINPYNEGTRYAQKFQGRVTLTADKSTSTAYMELSSLRSEDTAVYYCARGYYGSSYAMDYWGQGTTVTVSS VL: DIQMTQSPSSLSASVGDRVTITCSASQGISNYLNWYQQKPGKAIKLLIYDASTLYSGVPSRFSGSGSGTDFTLTISSLQPEDFATYYCQQYSKLPYTFGGGTKVEIK | 760 |
| 445-3-3(G41D-K42G-S24R-K93R) (antibody, V domains shown) VH: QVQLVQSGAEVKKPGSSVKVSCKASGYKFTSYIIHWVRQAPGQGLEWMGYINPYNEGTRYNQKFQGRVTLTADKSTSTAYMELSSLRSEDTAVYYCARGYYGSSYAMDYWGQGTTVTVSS VL: DIQMTQSPSSLSASVGDRVTITCRASQGISNYLNWYQQKPDGAIKLLIYDASTLYSGVPSRFSGSGSGTDFTLTISSLQPEDFATYYCQQYSRLPYTFGGGTKVEIK | 1050 |
| 445-3(A61N-K63R)-3 (antibody, V domains shown) VH: QVQLVQSGAEVKKPGSSVKVSCKASGYKFTSYIIHWVRQAPGQGLEWMGYINPYNEGTRYNQRFQGRVTLTADKSTSTAYMELSSLRSEDTAVYYCARGYYGSSYAMDYWGQGTTVTVSS VL: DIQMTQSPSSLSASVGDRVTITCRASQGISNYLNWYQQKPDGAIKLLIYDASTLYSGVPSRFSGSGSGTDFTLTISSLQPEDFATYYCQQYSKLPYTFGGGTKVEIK | 1100 |
